# assay summary: Compound cytotoxicity (CC50), XTT-based colorimetric assay
# Format: cell-based
# run parameters: human; uninfected MT2 cells, day 4, XTT assay
Counter-ions that a name gives are not always drawn.
This section presents molecules with their documented CC50 at 4 day values.

query: Give its CC50 at 4 day value. Item: Cc1ccccc1S(=O)(=O)NC(=O)N[C@@H](Cc1cc(F)cc(F)c1)c1ncccc1-c1ccc(CN2CCOCC2)s1 [Example 122, TFA]
result: > 100 µM

query: # get_value(readout='CC50 at 4 day', item= CCCOc1ccc(-n2ccnc2[C@H](Cc2ccccc2)NC(=O)NS(=O)(=O)c2ccccc2C)cc1Cl )
result: 50 µM

query: May I ask what CC50 at 4 day has been recorded for COC(=O)Nc1ccc(-n2ccnc2[C@H](Cc2ccccc2)NC(=O)NS(=O)(=O)c2cccc(Cl)c2)cc1 ?
result: > 100 µM

query: Would you kindly share the measured CC50 at 4 day for Cc1ccccc1S(=O)(=O)NC(=O)N[C@@H](Cc1ccccc1)c1nccn1-c1ccc2ccccc2c1 ?
result: > 100 µM

query: Give its CC50 at 4 day value. Item: CCOc1ccc(-c2cccnc2[C@@H](Cc2ccccc2)NC(=O)NS(=O)(=O)c2ccccc2C)cc1 [Example 105, TFA]
result: 75 µM

query: Look at this molecule and give its reported CC50 at 4 day. Cc1ccccc1S(=O)(=O)NC(=O)NC(Cc1ccccc1)c1ncccc1-c1ccc(F)c(C(N)=O)c1 (stereo not drawn) [Example 98, TFA]
result: > 33 µM

Continuing:
query: // CC50 at 4 day lookup, key: Cc1ccc2cc(-n3ccnc3[C@H](Cc3ccccc3)NC(=O)NS(=O)(=O)c3ccccc3C)ccc2n1
result: > 100 µM

query: Recorded CC50 at 4 day of CCOc1ccc(-n2ccnc2[C@H](Cc2ccccc2)NC(=O)NS(=O)(=O)c2ccccc2C)cc1 , please.
result: > 100 µM

query: If you can, please state the reported CC50 at 4 day value of COC(=O)Nc1ccc(-n2ccnc2[C@H](Cc2ccccc2)NC(=O)NS(=O)(=O)C2CC2)cc1 .
result: > 100 µM

query: Name the recorded CC50 at 4 day for Cc1ccccc1S(=O)(=O)NC(=O)N[C@H](Cc1cc(F)cc(F)c1)c1ncccc1-c1ccc(F)c(C(N)=O)c1 [Example 117, TFA] .
result: > 100 µM

query: Sample Cc1ccccc1S(=O)(=O)NC(=O)N[C@@H](Cc1ccccc1)c1nccn1-c1ccc(-c2cnn(C)c2)cc1 — what was its CC50 at 4 day?
result: > 33 µM

query: CC50 at 4 day lookup needed for Cc1ccccc1S(=O)(=O)NC(=O)N[C@@H](Cc1cc(F)cc(F)c1)c1nccn1-c1ccc2c(c1)CCO2 , thanks.
result: > 100 µM

query: Which CC50 at 4 day is reported for this molecule? Cc1ccccc1S(=O)(=O)NC(=O)N[C@@H](Cc1ccccc1)c1nccn1-c1cccc(Br)c1
result: > 33 µM

query: Any idea what its CC50 at 4 day is? The molecule is COc1ncccc1-c1cccnc1[C@H](Cc1cc(F)cc(F)c1)NC(=O)NS(=O)(=O)c1ccccc1C [Example 124, TFA]
result: > 100 µM

query: Which CC50 at 4 day is reported for this molecule? Cc1ccccc1S(=O)(=O)NC(=O)N[C@@H](Cc1ccccc1)c1nccn1-c1cccc(Cl)c1
result: > 100 µM

###

The following compounds are listed with their measured EC50 values.
# System: recombinant NL4-3 virus (nef section replaced with Renilla luciferase gene) in MT-2 cells
# assay summary: whole plant or invertebrate
# Type: cell-based, HIV
# run parameters: NL43, luciferase activity in MT-2 cells infected 4-5 days with recombinant NL4-3 virus, read-out: Activity
Where a name gives a salt, the structure may show the parent alone.

Guide cases for EC50, answers given:
query: # get_value(readout='EC50', item= Cc1ccccc1S(=O)(=O)NC(=O)N[C@@H](Cc1cc(F)cc(F)c1)c1ncccc1-c1ccc(C#N)cc1 [Example 128, TFA] )
result: > 1000 nM

query: Suppose we examine the compound Cc1ccccc1S(=O)(=O)NC(=O)N[C@@H](Cc1ccccc1)c1nccn1-c1cccc(N2CCCC2)c1 ; what EC50 value has been reported?
result: 100 to 1000 nM

query: Returns the measured EC50 for the input compound. Input: CCOc1ccc(-c2cccnc2[C@H](Cc2ccccc2)NC(=O)NS(=O)(=O)c2ccccc2C)cc1
result: 100 to 1000 nM

Pending compound:
query: Which EC50 is listed for COc1ccc(Cn2c(Br)cnc2[C@H](Cc2ccccc2)NC(=O)NS(=O)(=O)c2ccc(C)cc2)cc1 ?
result: > 1000 nM

###

# System: recombinant NL4-3 virus (nef section replaced with Renilla luciferase gene) in MT-2 cells
# assay summary: whole plant or invertebrate
# Assay type: cell-based, HIV
# run parameters: NL43, luciferase activity in MT-2 cells infected 4-5 days with recombinant NL4-3 virus, read-out: Activity
Structures can show the parent of a compound that is named as a salt.
experimental endpoint: EC50

query: Look at this compound and give its reported EC50. Cc1ccccc1S(=O)(=O)NC(=O)N[C@@H](Cc1ccccc1)c1nccn1-c1ccc2c(c1)ncn2C [Example 66]
result: 100 to 1000 nM

query: Entry under review: Cc1ccccc1S(=O)(=O)NC(=O)N[C@@H](Cc1cc(F)cc(F)c1)c1ncccc1-c1ccnc(F)c1C [Example 126, TFA] . Reported EC50?
result: > 1000 nM

###

List of EC50 values.
# System: recombinant NL4-3 virus (nef section replaced with Renilla luciferase gene) in MT-2 cells
# assay summary: whole plant or invertebrate
# Assay type: cell-based, HIV
# run parameters: NL43, luciferase activity in MT-2 cells infected 4-5 days with recombinant NL4-3 virus, read-out: Activity
Where a name gives a salt, the structure may show the parent alone.

These solved cases illustrate the format of a correct answer.
query: Record request: EC50 value, item COc1ccc(-c2cccnc2[C@H](Cc2cc(F)cc(F)c2)NC(=O)NS(=O)(=O)c2ccccc2C)cc1 [Example 96, TFA]
result: 0.1 to 1 µM

query: Look at this molecule and give its reported EC50. COC(=O)Nc1ccc(-n2ccnc2[C@H](Cc2ccccc2)NC(=O)NS(=O)(=O)c2cc(Cl)sc2Cl)cc1
result: < 0.1 µM

Further cases:
query: Item COC(=O)Nc1ccc(-n2ccnc2[C@H](Cc2ccccc2)NC(=O)NS(=O)(=O)c2cccc3ccccc23)cc1 has what recorded EC50?
result: 0.1 to 1 µM

query: Which EC50 value is on record for Cc1ccccc1S(=O)(=O)NC(=O)N[C@@H](Cc1ccccc1)c1nccn1-c1ccc(Br)cc1 ?
result: 0.1 to 1 µM

###

# Test system: recombinant NL4-3 virus (nef section replaced with Renilla luciferase gene) in MT-2 cells
# assay summary: whole plant or invertebrate
# Type: cell-based, HIV
# run parameters: NL43, luciferase activity in MT-2 cells infected 4-5 days with recombinant NL4-3 virus, read-out: Activity
Structures can show the parent of a compound that is named as a salt.
experimental endpoint: EC50

The following compounds have reported results that may help.
query: // returns reported EC50 for input COc1ncccc1-c1cccnc1[C@H](Cc1cc(F)cc(F)c1)NC(=O)NS(=O)(=O)c1ccccc1C [Example 124, TFA]
result: > 1000 nM

query: Sample COC(=O)Nc1ccc(-n2ccnc2[C@H](Cc2ccccc2)NC(=O)NS(=O)(=O)Cc2cccc(Cl)c2)cc1 — what was its EC50?
result: < 100 nM

New cases:
query: Item Cc1ccccc1S(=O)(=O)NC(=O)N[C@@H](Cc1cc(F)cc(F)c1)c1ncccc1-c1ccc(-c2cccs2)cc1 [Example 125, TFA] has what recorded EC50?
result: > 1000 nM

query: Dear colleague, I am looking for the recorded EC50 of the following compound: CCOc1ccc(-c2cccnc2[C@H](Cc2cc(F)cc(F)c2)NC(=O)NS(=O)(=O)c2ccccc2C)cc1F [Example 123, TFA]
result: 100 to 1000 nM

###

# Test system: recombinant NL4-3 virus (nef section replaced with Renilla luciferase gene) in MT-2 cells
# assay summary: whole plant or invertebrate
# Format: cell-based, HIV
# run parameters: NL43, luciferase activity in MT-2 cells infected 4-5 days with recombinant NL4-3 virus, read-out: Activity
experimental endpoint: EC50

Reference set (2 entries):
query: Report EC50 for CCCC(=O)Nc1cccc(-n2ccnc2[C@H](Cc2ccccc2)NC(=O)NS(=O)(=O)c2ccccc2C)c1 [Example 79] tested on recombinant NL4-3 virus (nef section replaced with Renilla luciferase gene) in MT-2 cells.
result: > 1000 nM

query: Given the entry Cc1ccccc1S(=O)(=O)NC(=O)N[C@@H](Cc1ccccc1)c1nccn1-c1ccc(-c2cnn(C)c2)cc1 [Example 61] , what EC50 was observed with recombinant NL4-3 virus (nef section replaced with Renilla luciferase gene) in MT-2 cells?
result: < 100 nM

Others:
query: // map Cc1ccccc1S(=O)(=O)NC(=O)N[C@@H](Cc1ccccc1)c1nccn1-c1ccc(N)cc1 [Example 42] to recorded EC50 (system: recombinant NL4-3 virus (nef section replaced with Renilla luciferase gene) in MT-2 cells)
result: < 100 nM
